- procedure-text: Hemolysis assay: melittin or KL3 blocked by anionic polymer or dimethylmaleic anhydride
- Type: cell-based
- particulars: pH 7.5; 30 minutes, 37 C; read-out: Percent hemolysis
Ends that are not written are not given here.
property-name: hemolysis (%)
Your answer should be a plain number; it is taken to be in %.

// query Need hemolysis, item KLLKLLLKLWLKLLKLLLKLL [KL3]
// result 86
